// values below are reported glycan array binding signal (z-score)
molecular target: Gal(b1-4)GlcNAc(b1-2)Man; assay: glycan array binding signal (z-score within array); higher = stronger binding; conditions: glycan notation: IUPAC condensed, linker removed
This excerpt belongs to a sample that is enriched for the strongest signals.
Answer as a number with no unit attached.

Example results:
Ask | Dear colleague, I am looking for the recorded glycan array binding signal (z-score) of the following binder: Cohesin-hMARCO (Homo sapiens) (protein) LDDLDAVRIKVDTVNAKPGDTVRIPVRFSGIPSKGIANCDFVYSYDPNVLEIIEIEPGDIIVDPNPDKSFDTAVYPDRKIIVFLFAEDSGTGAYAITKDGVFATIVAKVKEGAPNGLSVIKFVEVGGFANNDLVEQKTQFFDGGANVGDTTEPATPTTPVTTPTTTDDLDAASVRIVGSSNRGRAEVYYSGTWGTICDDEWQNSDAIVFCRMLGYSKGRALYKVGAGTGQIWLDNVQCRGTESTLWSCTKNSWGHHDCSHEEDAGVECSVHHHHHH
Reply | -0.48

Ask | What glycan array binding signal (z-score) value was documented for this binder, Protectin (Homo sapiens), P13987 (protein) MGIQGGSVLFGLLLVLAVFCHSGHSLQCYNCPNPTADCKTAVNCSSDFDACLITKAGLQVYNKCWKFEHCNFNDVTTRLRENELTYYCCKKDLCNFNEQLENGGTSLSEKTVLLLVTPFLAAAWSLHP ?
Reply | 0.267

New cases:
Ask | Which glycan array binding signal (z-score) is listed for pTFF2 (Sus scrofa), P01359 (protein) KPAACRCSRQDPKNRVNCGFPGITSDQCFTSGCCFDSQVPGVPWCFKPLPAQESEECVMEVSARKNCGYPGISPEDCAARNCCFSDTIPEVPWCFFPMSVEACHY ?
Reply | -2.22
